System Tested: DNA topoisomerase 2-alpha (Homo sapiens)
Sequence (P11388 whole entry): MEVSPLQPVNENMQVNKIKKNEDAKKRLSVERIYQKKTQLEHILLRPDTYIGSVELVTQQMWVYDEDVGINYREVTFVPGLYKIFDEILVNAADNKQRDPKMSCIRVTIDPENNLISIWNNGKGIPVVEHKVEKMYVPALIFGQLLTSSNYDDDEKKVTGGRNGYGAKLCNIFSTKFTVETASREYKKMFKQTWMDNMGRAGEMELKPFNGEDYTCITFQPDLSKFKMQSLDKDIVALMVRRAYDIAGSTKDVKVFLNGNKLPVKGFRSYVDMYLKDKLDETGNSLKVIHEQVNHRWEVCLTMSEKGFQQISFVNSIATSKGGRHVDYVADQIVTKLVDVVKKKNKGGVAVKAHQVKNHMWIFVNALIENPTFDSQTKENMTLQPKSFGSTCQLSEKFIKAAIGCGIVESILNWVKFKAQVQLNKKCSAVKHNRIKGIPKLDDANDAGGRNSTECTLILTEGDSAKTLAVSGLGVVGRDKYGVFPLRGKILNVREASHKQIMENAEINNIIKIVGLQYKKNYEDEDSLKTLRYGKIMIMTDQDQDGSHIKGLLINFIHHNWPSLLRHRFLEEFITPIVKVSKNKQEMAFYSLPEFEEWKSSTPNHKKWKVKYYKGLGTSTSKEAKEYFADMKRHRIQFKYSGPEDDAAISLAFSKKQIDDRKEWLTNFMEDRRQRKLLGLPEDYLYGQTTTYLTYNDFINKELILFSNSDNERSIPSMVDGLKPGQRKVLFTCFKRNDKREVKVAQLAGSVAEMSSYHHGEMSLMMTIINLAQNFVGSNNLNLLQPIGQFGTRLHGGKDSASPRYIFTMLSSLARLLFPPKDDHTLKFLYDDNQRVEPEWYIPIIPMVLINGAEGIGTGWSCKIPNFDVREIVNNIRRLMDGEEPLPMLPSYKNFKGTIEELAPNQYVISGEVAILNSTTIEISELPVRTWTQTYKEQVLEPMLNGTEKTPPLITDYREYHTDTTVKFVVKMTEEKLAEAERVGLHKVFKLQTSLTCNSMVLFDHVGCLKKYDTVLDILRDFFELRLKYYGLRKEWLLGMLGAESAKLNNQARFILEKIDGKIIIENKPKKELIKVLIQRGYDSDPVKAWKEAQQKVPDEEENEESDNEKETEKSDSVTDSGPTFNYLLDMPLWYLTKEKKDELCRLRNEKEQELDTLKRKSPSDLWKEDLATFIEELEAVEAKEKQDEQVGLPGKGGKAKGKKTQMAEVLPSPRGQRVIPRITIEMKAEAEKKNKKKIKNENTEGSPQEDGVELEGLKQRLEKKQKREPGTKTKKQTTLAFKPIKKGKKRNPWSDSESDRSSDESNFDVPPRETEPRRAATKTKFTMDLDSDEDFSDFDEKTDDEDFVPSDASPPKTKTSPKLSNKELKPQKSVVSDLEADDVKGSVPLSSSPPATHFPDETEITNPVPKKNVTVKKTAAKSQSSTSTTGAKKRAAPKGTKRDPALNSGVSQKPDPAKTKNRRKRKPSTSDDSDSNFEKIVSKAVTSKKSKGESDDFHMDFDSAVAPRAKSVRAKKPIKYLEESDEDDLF
Endpoint Name: pIC50
API: returns pIC50 as number; meaning -log10 of concentration in mol/L.

Given the molecule C=C(C)[C@@H]1CC[C@]2(CO)CC[C@]3(C)[C@H](CC[C@@H]4[C@@]5(C)CC[C@H](O)C(C)(C)[C@@H]5CC[C@]43C)[C@@H]12 [BETULIN] , what is its reported pIC50?
4.41
